# Tested on: human liver cancer (Hep3B) cell line
# assay_summary: MTT cytotoxicity assay, Hep3B
# measurement_conditions: Homo sapiens, Hep3B, 48 h, read-out: Cytotoxicity IC50 Hep3B
Doc: threshold 10 µM (exclusive). Items with IC50 beneath it return Y; others return N.

# input Dear colleague, could you confirm whether IC50 of CC1COc2c(N3CCN(C)CC3)c(F)cc3c(=O)c(C(=O)NN=Cc4ccc(F)cc4)cn1c23 (stereo not shown) falls below 10 µM? Thanks.
# output N

# input Confirm or reject: IC50 of C[C@H]1COc2c(N3CCN(C)CC3)c(F)cc3c(=O)c(C(=O)O)cn1c23 [Levofloxacin, reference compound] lies strictly below 10 µM
# output Y

# input # TODO verify IC50 < 10 µM strictly for this compound: CC1COc2c(N3CCN(C)CC3)c(F)cc3c(=O)c(C(=O)NN=C4C(=O)Nc5ccc(Cl)cc54)cn1c23 (stereo not shown)
# output N

# input Lab note: confirm whether the reported IC50 for this compound is below 10 µM, equality not counting. compound: CC1COc2c(N3CCN(C)CC3)c(F)cc3c(=O)c(C(=O)N4CCN(c5ccccc5)CC4)cn1c23 (stereo not shown) [Compound 13d]
# output N

# input Field: below-cutoff. Rule: recorded IC50 strictly less than 10 µM. Subject: CC1COc2c(N3CCN(C)CC3)c(F)cc3c(=O)c(C(=O)N4CCCCC4)cn1c23 (stereo not shown) [Compound 13a]
# output Y

# input Dear reviewer, please state whether CC1COc2c(N3CCN(C)CC3)c(F)cc3c(=O)c(C(=O)N4NC(=O)CC4=O)cn1c23 (stereo not shown) has IC50 strictly beneath 10 µM.
# output Y

# input Identify whether the compound CC1COc2c(N3CCN(C)CC3)c(F)cc3c(=O)c(C(=O)N4NC(=O)CC4=N)cn1c23 (stereo not shown) records IC50 below 10 µM.
# output Y

# input # TODO verify IC50 < 10 µM strictly for this compound: CCOC(=O)CC(C)=NNC(=O)c1cn2c3c(c(N4CCN(C)CC4)c(F)cc3c1=O)OCC2C (stereo not shown)
# output Y

# input Please check: IC50 for CC1COc2c(N3CCN(C)CC3)c(F)cc3c(=O)c(C(=O)NN4C(=O)c5ccccc5C4=O)cn1c23 (stereo not shown) , strictly under 10 µM or not?
# output N

# input Just wondering, is IC50 of CC1COc2c(N3CCN(C)CC3)c(F)cc3c(=O)c(C(=O)N4CCN(C)CC4)cn1c23 (stereo not shown) [Compound 13c] below 10 µM?
# output Y

* * *

# Test system: Hep3B cells
# assay_summary: Cell cycle analysis by propidium iodide staining, flow cytometry
# Assay type: cell-based, human
# measurement_conditions: Hep3B cells treated at IC50
measured_parameter: DNA content %S (%)
Give the value, in units of %, as a plain number.

The reported DNA content %S of the compound C[C@H]1COc2c(N3CCN(C)CC3)c(F)cc3c(=O)c(C(=O)O)cn1c23 [Levofloxacin, reference compound] was 30.47

Form field DNA content %S, entry COc1cc([C@@H]2c3cc4c(cc3[C@@H](O[C@@H]3O[C@@H]5CO[C@@H](C)O[C@H]5[C@H](O)[C@H]3O)[C@H]3COC(=O)[C@H]23)OCO4)cc(OC)c1O [Etoposide, reference compound] : 26.24

Note to self: DNA content %S recorded for COc1ccc(C=NNC(=O)c2cn3c4c(c(N5CCN(C)CC5)c(F)cc4c2=O)OCC3C)cc1 (stereo not shown) was 37.56

Field DNA content %S (entry CCOC(=O)CC(C)=NNC(=O)c1cn2c3c(c(N4CCN(C)CC4)c(F)cc3c1=O)OCC2C (stereo not shown) ) reads 39.09

* * *

Please go through the items and note down their melting point.

Lab note: CC1COc2c(N3CCN(C)CC3)c(F)cc3c(=O)c(C(=O)N4CCN(c5ccccc5)CC4)cn1c23 (stereo not shown) [Compound 13d] gave melting point of 246 to 248 °C

Value of measured melting point for the entry CC1COc2c(N3CCN(C)CC3)c(F)cc3c(=O)c(C(=O)NN=Cc4ccc(Cl)cc4)cn1c23 (stereo not shown) : 260 to 262 °C

Kindly note the recorded melting point for CC1COc2c(N3CCN(C)CC3)c(F)cc3c(=O)c(C(=O)N4NC(=O)CC4=O)cn1c23 (stereo not shown) , which is 228 to 230 °C

Entry under test: CC1COc2c(N3CCN(C)CC3)c(F)cc3c(=O)c(C(=O)NN=C4C(=O)Nc5ccc(Cl)cc54)cn1c23 (stereo not shown) . Its melting point was > 300 °C

* * *

# Tested on: Hep3B cells
# assay_summary: Cell cycle analysis by propidium iodide staining, flow cytometry
# Type: cell-based, human
# measurement_conditions: Hep3B cells treated at IC50
measured_parameter: DNA content %G0–G1 (%)
Express the result in % but write the number alone.

So for COc1cc([C@@H]2c3cc4c(cc3[C@@H](O[C@@H]3O[C@@H]5CO[C@@H](C)O[C@H]5[C@H](O)[C@H]3O)[C@H]3COC(=O)[C@H]23)OCO4)cc(OC)c1O [Etoposide, reference compound] , the logged DNA content %G0–G1 turned out to be 36.14

GET /value?item= C[C@H]1COc2c(N3CCN(C)CC3)c(F)cc3c(=O)c(C(=O)O)cn1c23 [Levofloxacin, reference compound] &field=DNA content %G0–G1 returns 29.66

Input CCOC(=O)CC(C)=NNC(=O)c1cn2c3c(c(N4CCN(C)CC4)c(F)cc3c1=O)OCC2C (stereo not shown) . Output DNA content %G0–G1: 38.49

DNA content %G0–G1 for COc1ccc(C=NNC(=O)c2cn3c4c(c(N5CCN(C)CC5)c(F)cc4c2=O)OCC3C)cc1 (stereo not shown) is 43.53

* * *

# Tested on: Hep3B cells
# assay_summary: Cell cycle analysis by propidium iodide staining, flow cytometry
# Format: cell-based, human
# measurement_conditions: Hep3B cells treated at IC50
Field: DNA content %G2/M. Provide a value for each of the compounds that follow.
Please respond with the number in % and leave the unit unwritten.

DNA content %G2/M reported for this compound COc1cc([C@@H]2c3cc4c(cc3[C@@H](O[C@@H]3O[C@@H]5CO[C@@H](C)O[C@H]5[C@H](O)[C@H]3O)[C@H]3COC(=O)[C@H]23)OCO4)cc(OC)c1O [Etoposide, reference compound] : 37.62

The compound C[C@H]1COc2c(N3CCN(C)CC3)c(F)cc3c(=O)c(C(=O)O)cn1c23 [Levofloxacin, reference compound] showed DNA content %G2/M equal to 39.87

The measured DNA content %G2/M associated with COc1ccc(C=NNC(=O)c2cn3c4c(c(N5CCN(C)CC5)c(F)cc4c2=O)OCC3C)cc1 (stereo not shown) reads 18.91

Summary for this compound, CCOC(=O)CC(C)=NNC(=O)c1cn2c3c(c(N4CCN(C)CC4)c(F)cc3c1=O)OCC2C (stereo not shown) : DNA content %G2/M is 22.42

* * *

# assay_summary: in vitro
# measurement_conditions: human, THLE2 normal liver cells
Note to self: IC50 at 48 h under 40 µM means 1, ties and anything higher get -1.

# input Item C[C@H]1COc2c(N3CCN(C)CC3)c(F)cc3c(=O)c(C(=O)O)cn1c23 [Levofloxacin, reference compound] : IC50 at 48 h beneath 40 µM, strictly?
# output 1

# input Lab note: confirm whether the reported IC50 at 48 h for this molecule is below 40 µM, equality not counting. molecule: CC1COc2c(N3CCN(C)CC3)c(F)cc3c(=O)c(C(=O)N4CCN(C)CC4)cn1c23 (stereo not shown) [Compound 13c]
# output 1

# input Please check: IC50 at 48 h for CC1COc2c(N3CCN(C)CC3)c(F)cc3c(=O)c(C(=O)N4NC(=O)CC4=N)cn1c23 (stereo not shown) , strictly under 40 µM or not?
# output -1

# input Please check: IC50 at 48 h for CC1COc2c(N3CCN(C)CC3)c(F)cc3c(=O)c(C(=O)N4CCCCC4)cn1c23 (stereo not shown) [Compound 13a] , strictly under 40 µM or not?
# output 1

# input Lab note: IC50 at 48 h threshold 40 µM. Does this molecule come in strictly under it? COc1ccc(C=NNC(=O)c2cn3c4c(c(N5CCN(C)CC5)c(F)cc4c2=O)OCC3C)cc1 (stereo not shown)
# output 1

# input Please indicate whether the reported IC50 at 48 h of COc1cc([C@@H]2c3cc4c(cc3[C@@H](O[C@@H]3O[C@@H]5CO[C@@H](C)O[C@H]5[C@H](O)[C@H]3O)[C@H]3COC(=O)[C@H]23)OCO4)cc(OC)c1O [Etoposide, reference compound] is strictly below 40 µM.
# output 1

* * *

# assay_summary: in vitro
# measurement_conditions: human, MCF-10a normal breast cells
measured_parameter: IC50 at 48 h
Could you kindly put the unit after your number?

Sure, the documented IC50 at 48 h for COc1cc([C@@H]2c3cc4c(cc3[C@@H](O[C@@H]3O[C@@H]5CO[C@@H](C)O[C@H]5[C@H](O)[C@H]3O)[C@H]3COC(=O)[C@H]23)OCO4)cc(OC)c1O [Etoposide, reference compound] is 23.9 µM

Looking up C[C@H]1COc2c(N3CCN(C)CC3)c(F)cc3c(=O)c(C(=O)O)cn1c23 [Levofloxacin, reference compound] , I found its IC50 at 48 h recorded as 22.2 µM

Lab book: IC50 at 48 h of CCOC(=O)CC(C)=NNC(=O)c1cn2c3c(c(N4CCN(C)CC4)c(F)cc3c1=O)OCC2C (stereo not drawn) noted as 30.4 µM
